Here, each record is paired with measured IC50 data.
- target system: Plasmepsin II (Plasmodium falciparum, UniProt P46925)
- Sequence (P46925 whole entry): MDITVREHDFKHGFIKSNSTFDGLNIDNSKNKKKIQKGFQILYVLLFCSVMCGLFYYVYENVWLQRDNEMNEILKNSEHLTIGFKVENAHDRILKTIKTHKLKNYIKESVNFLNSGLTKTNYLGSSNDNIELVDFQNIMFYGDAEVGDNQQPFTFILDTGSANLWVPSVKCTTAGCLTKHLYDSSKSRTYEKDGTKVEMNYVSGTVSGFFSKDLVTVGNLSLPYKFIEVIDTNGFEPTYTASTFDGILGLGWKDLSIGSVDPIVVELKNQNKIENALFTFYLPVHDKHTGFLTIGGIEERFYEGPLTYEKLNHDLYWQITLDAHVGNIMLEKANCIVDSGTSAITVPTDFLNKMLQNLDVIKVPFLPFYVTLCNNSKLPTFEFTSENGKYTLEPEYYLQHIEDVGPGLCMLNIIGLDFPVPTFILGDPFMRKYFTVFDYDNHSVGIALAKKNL
result type: IC50 (nM)

INSERT INTO measurements (compound_structure, target_system, test_value) VALUES
  ('CC(C)C[C@H](NC(=O)[C@H](CCl)NC(=O)C[C@H](O)[C@H](Cc1ccccc1)NC(=O)[C@@H](NC(=O)c1ccccn1)C(C)C)C(N)=O', 'Plasmepsin II (Plasmodium falciparum, UniProt P46925)', 28),
  ('C#CC[C@H](NC(=O)C[C@H](O)[C@H](Cc1ccccc1)NC(=O)[C@@H](NC(=O)c1ccccn1)C(C)C)C(=O)N[C@@H](CC(C)C)C(N)=O', 'Plasmepsin II (Plasmodium falciparum, UniProt P46925)', 333),
  ('C#CCNC(=O)[C@H](Cc1ccccc1)NC(=O)C[C@H](O)[C@H](Cc1ccccc1)NC(=O)[C@@H](NC(=O)c1ccccn1)C(C)C', 'Plasmepsin II (Plasmodium falciparum, UniProt P46925)', 22);

----------
- target system: Plasmepsin II (Plasmodium falciparum)
- test name: Inhibition of Plasmodium falciparum plasmepsin-2 expressed in Escherichia coli BL21 (DE3) at 1 uM after 30 min by FRET assay
The source made the active and inactive calls. The rule behind the calls is not given here.
result type: inhibition

INSERT INTO measurements (compound_structure, test_value) VALUES
  ('C#CC[C@H](NC(=O)C[C@H](O)[C@H](Cc1ccccc1)NC(=O)[C@@H](NC(=O)c1ccccn1)C(C)C)C(=O)N[C@@H](CC(C)C)C(N)=O', 'Active'),
  ('CC(C)C[C@H](NC(=O)[C@H](CC#N)NC(=O)C[C@H](O)[C@H](Cc1ccccc1)NC(=O)[C@@H](NC(=O)c1ccccn1)C(C)C)C(N)=O', '88.2%'),
  ('C#CCNC(=O)[C@H](Cc1ccccc1)NC(=O)C[C@H](O)[C@H](Cc1ccccc1)NC(=O)[C@@H](NC(=O)c1ccccn1)C(C)C', 'Active'),
  ('CC(C)CC(=O)N[C@H](C(=O)N[C@H](C(=O)N[C@@H](CC(C)C)[C@@H](O)CC(=O)N[C@@H](C)C(=O)N[C@@H](CC(C)C)[C@@H](O)CC(=O)O)C(C)C)C(C)C', '82.8%'),
  ('CC(C)C[C@H](NC(=O)[C@H](CCl)NC(=O)C[C@H](O)[C@H](Cc1ccccc1)NC(=O)[C@@H](NC(=O)c1ccccn1)C(C)C)C(N)=O', 'Active');

----------
- target system: Cathepsin D (Homo sapiens, UniProt P07339)
- Sequence (P07339 65-162 limits assumed): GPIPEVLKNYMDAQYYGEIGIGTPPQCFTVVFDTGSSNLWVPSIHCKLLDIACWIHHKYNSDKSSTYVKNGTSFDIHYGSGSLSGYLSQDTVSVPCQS
- Sequence (P07339 169-412 limits assumed): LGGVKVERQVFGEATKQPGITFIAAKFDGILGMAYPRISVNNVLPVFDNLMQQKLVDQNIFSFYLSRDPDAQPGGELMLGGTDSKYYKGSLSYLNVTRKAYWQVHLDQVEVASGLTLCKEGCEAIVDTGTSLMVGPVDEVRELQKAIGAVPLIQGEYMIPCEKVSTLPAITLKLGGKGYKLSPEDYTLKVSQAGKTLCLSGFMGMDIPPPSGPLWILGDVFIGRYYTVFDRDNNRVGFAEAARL
- test name: Inhibition of human cathepsin D after 30 mins by FRET assay
Here, each record is paired with measured IC50 data.
result type: IC50 (µM)

INSERT INTO assay_data (compound_structure, test_value) VALUES
  ('CC(C)C[C@H](NC(=O)[C@H](CCl)NC(=O)C[C@H](O)[C@H](Cc1ccccc1)NC(=O)[C@@H](NC(=O)c1ccccn1)C(C)C)C(N)=O', 0.05),
  ('CC(C)C[C@H](NC(=O)[C@H](CC#N)NC(=O)C[C@H](O)[C@H](Cc1ccccc1)NC(=O)[C@@H](NC(=O)c1ccccn1)C(C)C)C(N)=O', 0.05),
  ('C#CC[C@H](NC(=O)C[C@H](O)[C@H](Cc1ccccc1)NC(=O)[C@@H](NC(=O)c1ccccn1)C(C)C)C(=O)N[C@@H](CC(C)C)C(N)=O', 0.05);
